- Tested on: SK-MEL-2
- PROTOCOL_TEXT: NCI tumour cell line growth inhibition, 48 h
The source made the active and inactive calls. Cut-off read from the data, not from the text of the source: active = GI50 up to about 1.1 µM and inactive = higher.
Just give me one of these, please: true = active, false = inactive

compound=O=C(c1ccc(Cl)cc1Cl)N(C(=O)N1CCCCC1)c1ccccc1 tested_on=SK-MEL-2 group=false
compound=N#C/N=N/c1cc(Cl)c(/N=N/C#N)cc1Cl tested_on=SK-MEL-2 group=false
compound=COc1cc2c3c(n(C)c(=O)c2cc1OC)-c1cc2c(cc1C3=O)OCO2 tested_on=SK-MEL-2 group=false
compound="CCC1(O)C(=O)OCc2c1cc1n(c2=O)Cc2cc3c(N)cccc3nc2-1 (centres undefined)" tested_on=SK-MEL-2 group=true
compound="CC(C)(C)COC(=O)C(C)(C)NC(=O)C(CC(=O)OCc1ccccc1)NC(=O)OCc1ccccc1 (centres undefined)" tested_on=SK-MEL-2 group=false
compound="CC(CC[C@@H](O)C(C)(C)O)C1[C@@H](O)CC2(C)C3CC(O)C4C(C)(C)[C@@H](OC5OC(CO)C(O)C(O)C5O)CC[C@@]45C[C@@]35CC[C@]12C (some centres undefined)" tested_on=SK-MEL-2 group=false
compound=O=C(CSCC(=O)N/N=C\c1cc(Cl)cc(Cl)c1O)N/N=C\c1cc(Cl)cc(Cl)c1O tested_on=SK-MEL-2 group=false
compound=O=[N+]([O-])c1ccc2[nH]c3c(-c4ccccc4)nccc3c2c1 tested_on=SK-MEL-2 group=false

Data request: How did this test come out for COc1nc2c(c(=O)n1C)N=C(c1ccccc1)[C@H](C(CC(=O)c1ccccc1)c1ccccc1)C(c1ccccc1)N2 (some centres undefined) ?
Data returned: false

---

- Tested on: MDA-N
- PROTOCOL_TEXT: NCI tumour cell line growth inhibition, 48 h
Activity calls are given as the source filed them. Cut-off read from the data, not from the text of the source: active = GI50 up to about 1.1 µM and inactive = higher.
// values below are reported GI50

Lookup result for O=C1NC(=O)C(COCc2ccccc2)C2=C1SCCC2 (stereo not given) ; measured GI50: > 100 µM (inactive)

Lookup result for O=C(N1CCOCC1)C1(c2ccccc2)CCNCC1 ; measured GI50: > 100 µM (inactive)

Lookup result for CC(=O)O[C@H]1C[C@H](O[C@H]2[C@@H](O)C[C@H](O[C@H]3[C@@H](O)C[C@H](O[C@H]4CC[C@@]5(C)[C@H](CC[C@@H]6[C@@H]5C[C@@H](O)[C@]5(C)[C@@H](C7=CC(=O)OC7)CC[C@]65O)C4)O[C@@H]3C)O[C@@H]2C)O[C@H](C)[C@H]1O[C@@H]1O[C@H](CO)[C@@H](O)[C@H](O)[C@H]1O [LANATOSIDE C] ; measured GI50: 0.156 µM (active)

Lookup result for Nc1n[c-](N)[n+](=O)c(N)c1NCO ; measured GI50: > 100 µM (inactive)

Lookup result for O=C1Nc2ccccc2Cn2c1cc1oc(-c3ccccc3)cc12 ; measured GI50: > 100 µM (inactive)

Lookup result for O=C(NC(=O)c1c(Cl)nc2sccn12)Nc1ccc(Cl)cc1 ; measured GI50: > 100 µM (inactive)

---

// values below are reported GI50
- System: NCI-H460
- PROTOCOL_TEXT: NCI tumour cell line growth inhibition, 48 h
The source made the active and inactive calls. Cut-off read from the data, not from the text of the source: active = GI50 up to about 1.1 µM and inactive = higher.

Field: example entries. Status: answers known.
compound=O=C(Nc1cccc(F)c1)c1cc2ccc(O)cc2o/c1=N\c1ccccc1F tested_on=NCI-H460 result="3.15 µM (inactive)"
compound="CCOC(=O)Cc1nc2c(N)ncnc2n1C1OC(COC(C)=O)C(OC(C)=O)C1OC(C)=O (stereo not given)" tested_on=NCI-H460 result="> 100 µM (inactive)"
compound="COC(OC)[C@@H](C)[C@H](O)[C@](C)(O)C1OC(C)(C)OC(C(C)C=C(C)C)C1C (stereo not given in full)" tested_on=NCI-H460 result="> 100 µM (inactive)"
compound="CCc1cccc(C(C)CC)c1NC(=O)C(=O)C(CC(=O)Nc1ccc(Cl)c(Cl)c1)C(=O)OC (stereo not given)" tested_on=NCI-H460 result="> 100 µM (inactive)"
compound=O=S(O)CCCSSCCCCSSCCCS(=O)O tested_on=NCI-H460 result="> 100 µM (inactive)"
compound=CO/N=C/c1c(-c2ccc(Cl)cc2)c(/C=N/OC)n2c1sc1ccccc12 tested_on=NCI-H460 result="> 100 µM (inactive)"
compound="COc1ccc(Cc2nc3cc(C(F)(F)F)ccc3n2C[C@@H]2CCCN3CCCCC23)cc1 (stereo not given in full)" tested_on=NCI-H460 result="13.6 µM (inactive)"
compound=c1ccc([P+](CCCCCCCC[P+](c2ccccc2)(c2ccccc2)c2ccccc2)(c2ccccc2)c2ccccc2)cc1 tested_on=NCI-H460 result="3.25 µM (inactive)"

Lookup result for O=C(O)C1CCCCN1C(=O)Cc1c[nH]c2ccccc12 (stereo not given) ; measured GI50: > 100 µM (inactive)

Lookup result for N#Cc1c(=O)c2cccnc2n2c1[nH]c1ccccc12 ; measured GI50: 69.2 µM (inactive)

---

- Tested on: HOP-62
- PROTOCOL_TEXT: NCI tumour cell line growth inhibition, 48 h
Calls of active or inactive are those of the source. No stated cut-off is given here; in the data, active = GI50 up to about 1.1 µM and inactive = higher.
// values below are reported GI50

Lookup result for CNC(=O)OCCN1c2ccccc2Sc2ccccc21 ; measured GI50: 14.1 µM (inactive)

Lookup result for Cc1ccc(NC(=O)C23CC4CC(CC(C4)C2)C3)c(C(=O)NNC(=O)c2ccc(Cl)cc2)c1 ; measured GI50: 18.4 µM (inactive)

Lookup result for O=C1c2ccccc2N2OC3(N4CCCC4)CCCCC3C12c1ccccc1 (stereo unspecified) ; measured GI50: > 100 µM (inactive)

Lookup result for COc1c2c(c(CC=C(C)C)c3oc(=O)c(-c4ccc(O)cc4)c(O)c13)OC(C)(C)C=C2 ; measured GI50: 23.4 µM (inactive)

---

- System: Hs-578T
- PROTOCOL_TEXT: NCI tumour cell line growth inhibition, 48 h
Calls of active or inactive are those of the source. Rule as the data show it: active = GI50 up to about 1.1 µM and inactive = higher.
Just give me one of these, please: 1.0 for active, 0.0 for inactive

compound=Nc1nc(Cl)cc(Oc2ccc(Cl)cc2)n1 group=0.0
compound="CCCCCCCCCCCCCCCCCCNc1ccn(C2OC(CO)C(OP(=O)(O)OCC3CCC(n4ccc(N)nc4=O)O3)C2O)c(=O)n1 (centres undefined)" group=0.0
compound="CSc1ccc2c(c1)C(N1CCN(C)CC1)Cc1ccccc1S2 (centres undefined)" group=0.0
compound="O=C(/N=S(/NC(=O)c1ccccc1)C(Cl)(Cl)Cl)c1ccccc1 (centres undefined)" group=0.0
compound=COC(=O)NNC(c1ccc(Cl)cc1)c1ccc(Cl)cc1 group=0.0
compound=CCCCC[C@@H]1OC(=O)[C@@]2(CC3c4ccccc4C2c2ccccc23)[C@H]1C(=O)OC group=0.0
compound="CC(=O)CC1(OC(=O)C2C(C=C(C)C)C2(C)C)C(=O)Nc2ccccc21 (centres undefined)" group=0.0
compound=COc1ccc(C(=O)NC2=C(Cl)C(=O)c3ccccc3C2=O)cc1 group=0.0

Data request: How did this test come out for C[C@H](CS)C(=O)N1c2ccccc2C[C@H]1C(=O)O ?
Data returned: 0.0

Data request: How did this test come out for CCC(/C=C/C1OC(=O)C=CC1C)=C\C(C)C/C=C/C(C)=C/C(C)C(=O)C(C)C(O)C(C)C/C(C)=C/C(=O)O (centres undefined) ?
Data returned: 1.0

Data request: How did this test come out for COc1ccc2c(c1)CCc1cc(C(N)=O)c3nnnn3c1-2 ?
Data returned: 1.0

Data request: How did this test come out for O=C(c1ccccc1Br)C(F)(F)F ?
Data returned: 0.0

Data request: How did this test come out for CC(=O)O[C@H]1C[C@H](O[C@H]2[C@@H](O)C[C@H](O[C@H]3[C@@H](O)C[C@H](O[C@H]4CC[C@@]5(C)[C@H](CC[C@@H]6[C@@H]5C[C@@H](O)[C@]5(C)[C@@H](C7=CC(=O)OC7)CC[C@]65O)C4)O[C@@H]3C)O[C@@H]2C)O[C@H](C)[C@H]1O[C@@H]1O[C@H](CO)[C@@H](O)[C@H](O)[C@H]1O [LANATOSIDE C] ?
Data returned: 1.0

Data request: How did this test come out for CC(C)CC(=O)NC(NC(C)C)(C(F)(F)F)C(F)(F)F ?
Data returned: 0.0

Data request: How did this test come out for CC(C)(C)COC(=O)C(C)(C)NC(=O)C(CC(=O)OCc1ccccc1)NC(=O)OCc1ccccc1 (centres undefined) ?
Data returned: 0.0

Data request: How did this test come out for CNC(=O)N(CCC#N)CCN(C(=O)N(C)C)c1ccccc1 ?
Data returned: 0.0

Data request: How did this test come out for O=c1oc2ccc3ccccc3c2cc1-c1cn2ccsc2n1 ?
Data returned: 0.0

Data request: How did this test come out for CCOC(=O)Cc1nc2c(N)ncnc2n1C1OC(COC(C)=O)C(OC(C)=O)C1OC(C)=O (centres undefined) ?
Data returned: 0.0

Data request: How did this test come out for CC1=C(C(=O)NCCCN(CCO)CCO)CC(C(=O)NCCCN(CCO)CCO)=C(C)N1 ?
Data returned: 0.0
